Assay: Quantitative High-Throughput drug screen in 47 multiple myeloma cell lines against the NCATS MIPE library collection: PCM6_Riken cell viability assay (AID 1919870); also: nearly all actives have a fitted effect of over 30% in size
Conditions: CellTiter-Glo ATP, 48 h; series mostly up to 45.8 µM
Excerpt: PI: Beverly A. Mock Ph.D. Laboratory of Cancer Biology and Genetics, Center for Cancer Research, National Cancer Institute, National Institute of Health, Bethesda, Maryland […] 5; Detector; 425V; Luminescence; Viewlux PerkinElmer. […] 1. […] Briefly, the corresponding myeloma cell lines were screened in 1,536-well plates with 500 cells, 5-uL per well for inhibition of cell viability (assessed by measuring ATP levels with CellTiterGlo). […]
Inconclusive results are not listed. Calls of active or inactive are those of the source. Calls follow the shape of the dose curve; as a rule, active = well fitted cell-killing curve with a large enough effect; inconclusive = small, poorly fitted or top-dose-only effect, or effect the other way; inactive = no such curve, though single readings can be large or run the other way.
Response enum: active, inactive

Here's what some known entries look like.
# MOLECULE, QUALITATIVE LABEL
data = [
    ("CC(C[N+](C)(C)C)OC(N)=O (stereo not drawn)", "inactive"),
    ("CC1(C)Cc2c(-c3ccccc3)c(-c3ccc(Cl)cc3)c(CC(=O)O)n2C1", "active"),
]

Note: attention shifts to another entry.
### Prompt Could you check what this test reported for NS(=O)(=O)c1cc2c(cc1Cl)NC=NS2(=O)=O ?
### Response inactive
